Molecular target: T1, recombinant, soluble human ASGR-1 (human, UniProt P07306 62-291)
T1 construct: biotinylated in the binning assay; also called soluble huASGR-1; Soluble ASGR-1 (Amgen)
T1 sequence: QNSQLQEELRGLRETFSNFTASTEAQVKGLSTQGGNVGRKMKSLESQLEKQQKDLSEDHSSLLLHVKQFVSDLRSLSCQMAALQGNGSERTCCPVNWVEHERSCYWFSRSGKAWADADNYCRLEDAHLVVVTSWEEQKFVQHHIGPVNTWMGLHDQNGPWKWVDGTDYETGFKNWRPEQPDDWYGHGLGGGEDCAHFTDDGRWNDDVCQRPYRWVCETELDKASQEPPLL
Experiment: Octet BLI dissociation, pH 5.6 plus calcium
PARAMETER_MEASURED: % Change Compared to pH 7.4 + Calcium (%)
Write it as a number; the unit % goes unstated.

(Q) Please report the measured % Change Compared to pH 7.4 + Calcium for 190H9 (antibody, V domains shown, hybridoma mAb) VH: QVQLVESGGGVVQPGRSLRLSCAASGFTFRNYGMHWVRQAPGKGLEWVAVIWFDGSNDYYADSVKGRFTISRDNSKNTLSLQMNSLRAEDTAVYYCARDRSVGYDGLDVWGQGTTVTVSS VL: DIQMTQSPSSLSASVGDRVTITCRASQGIGKYLAWFQQKPGKALKSLIYAASSLQSGVPSKFSGSGSGTDFTLTISSLQPDDFATYYCQRYDTYPFTFGPGTKVDIK
(A) -6

(Q) Please report the measured % Change Compared to pH 7.4 + Calcium for 226F9 (antibody, V domains shown, hybridoma mAb) VH: QVQLVQSGAEVKKPGASVKVSCKASGYTFTGYYIHWVRQAPGQGLEWMGWINPYSGDTKYAQKFQGRVTMTRATSISTAYMELSRLRFDDTAVFYCARDWGGYSSYYYGMDVWGQGTTVTVSS VL: DIVMTQTPLSLSVTPGQPASISCKSSQSLLHSDGKTFLYWYLQKPGQPPQLLIYEISNRFSGVPDRFSGSGSGTDFTLKISRVEAEDVGIYYCMQSTQLPRTFGQGTKVEIK
(A) 51

(Q) Please report the measured % Change Compared to pH 7.4 + Calcium for 192H10 (antibody, V domains shown, hybridoma mAb) VH: QVQLVESGGGVVQPGRSLRLSCAASGFTFSSYGMHWVRQAPGKGLEWVAVIWYDGSNKNYADSVKGRFTISRDNSKNTLYLQMNSLRAEDTAMYYCARDQGVGYDGLDVWGQGTSVTVSS VL: DIQMTQSPSSLSASVGDRVTITCRASQGIGKYLAWFQQKPGKAPKSLIYAASSLQSGVPSKFSGSGYGTDFTLTISSLQPENFATYYCQQYSTYPLTFGGGTKVEIK
(A) -5

(Q) Please report the measured % Change Compared to pH 7.4 + Calcium for 227F2 (antibody, V domains shown, hybridoma mAb) VH: QVHLVQSGAEVKKPGASVKVSCKASGYTFTGYYIHWVRQAPGQGLEWMGWINPYSGDTKYAQKFQGRVTMTRDTSISTAYMELSRLRFDDTAVFYCARDWGGYSSYYYGMDVWGQGTTVTVSS VL: DIVMTQTPLSLSVTPGQPASISCKSSQSLLHSDGKTFLYWYLQKPGQPPQLLIYEISNRFSGVPDRFSGSGSGTDFTLKISRVEAEDVGIYYCMQSTQLPRTFGQGTKVEIK
(A) 50

(Q) Please report the measured % Change Compared to pH 7.4 + Calcium for 147E9 (antibody, V domains shown, hybridoma mAb) VH: EVQLVESGGGLVQPGGSLRLSCAASGFTFSSYSMNWVRQAPGKGLEWVSSISGRNTTIYYADSVKGRFTISRDNAKNSLYLQMNSLRDEDTAVYYCSRDRGSCWGQGTLVTVSS VL: DIQMTQSPSSLSASVGDRVTITCRASQDINNYLAWFQQKPGKAPKSLIVAASSLQSGVPSKFSGSGSGTDFTLTISSLQPEDFATYYCQQYNSYPLTFGGGTKVEIK
(A) -4
